Just for reference, ChEMBL document CHEMBL1944567 is where these values come from.

Molecular target: Phosphotyrosine-protein phosphatase PTPB (Mycobacterium tuberculosis) (UniProt P96830)
Sequence (P96830 as listed by the source): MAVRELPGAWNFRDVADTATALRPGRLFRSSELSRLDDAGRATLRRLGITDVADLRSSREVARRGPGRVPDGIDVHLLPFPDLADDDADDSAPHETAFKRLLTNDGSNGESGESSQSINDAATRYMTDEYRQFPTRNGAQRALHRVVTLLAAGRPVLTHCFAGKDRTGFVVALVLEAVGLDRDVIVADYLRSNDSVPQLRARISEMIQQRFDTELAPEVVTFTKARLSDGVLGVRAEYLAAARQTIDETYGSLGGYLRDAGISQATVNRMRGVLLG
Test: Inhibition of Mycobacterium tuberculosis PTP-B using p-nitrophenyl phosphate as substrate at 25 uM measured for 10 mins by spectrofluorimetry
Is inhibition at least 8%? Then class 1. If not, class 0.

[
  {
    "smiles entry": "COc1cccc(/C=C/C(=O)c2ccc3ccccc3c2)c1",
    "assigned category": "class 0"
  }
]

**Q:** Hello, I need to know if O=C(/C=C/c1ccc(Cl)cc1Cl)c1ccc2ccccc2c1 has measured inhibition not below 8%. Thanks!
**A:** class 1

**Q:** Check O=C(/C=C/c1c(Cl)cccc1Cl)c1ccc2c(c1)OCO2 too.
**A:** class 0

**Q:** Check O=C(/C=C/c1ccccc1F)c1ccc2ccccc2c1 too.
**A:** class 0

**Q:** Check N#Cc1ccc(/C=C/C(=O)c2ccc3c(c2)OCO3)cc1 too.
**A:** class 0

**Q:** Check COc1cc(/C=C/C(=O)c2ccc(-n3ccnc3)cc2)ccc1OCc1ccccc1 too.
**A:** class 0

**Q:** Check O=C(/C=C/c1ccc2ccccc2c1)c1ccc2ccccc2c1 too.
**A:** class 1

**Q:** Check O=C(/C=C/c1ccc2ccccc2c1)c1ccc(-n2ccnc2)cc1 too.
**A:** class 0

**Q:** Check O=C(/C=C/c1ccccc1[N+](=O)[O-])c1ccc2c(c1)OCO2 too.
**A:** class 1

**Q:** Check O=C(/C=C/c1ccc(Br)cc1)c1ccc2ccccc2c1 too.
**A:** class 1

* * *

Quick reference for inhibition among some compounds
Molecular target: UniProt:P9WIA1
Assay: Inhibition of Mycobacterium tuberculosis PTP-A using p-nitrophenyl phosphate as substrate at 25 uM measured for 10 mins by spectrofluorimetry
Enter your answer as a number in %; do not include the unit.

[
  {
    "smiles entry": "O=C(/C=C/c1ccc2ccccc2c1)c1ccc(Cl)s1",
    "inhibition (%)": 31
  },
  {
    "smiles entry": "O=C(/C=C/c1ccc(Cl)cc1Cl)c1ccc2c(c1)OCO2",
    "inhibition (%)": 27
  },
  {
    "smiles entry": "O=C(/C=C/c1ccc(Cl)c(Cl)c1)c1ccc2ccccc2c1",
    "inhibition (%)": 11
  }
]

**Q:** Sample O=C(/C=C/c1ccccc1[N+](=O)[O-])c1ccc2c(c1)OCO2 — what was its inhibition?
**A:** 0

**Q:** Check O=C(/C=C/c1ccccc1)c1ccc2ccccc2c1 too.
**A:** 4

**Q:** Check COc1ccc(/C=C/C(=O)c2ccc3ccccc3c2)c(OC)c1OC too.
**A:** 0

* * *

Target: Low molecular weight protein-tyrosine phosphatase A (Mycobacterium tuberculosis) (UniProt P9WIA1)
Experiment: Inhibition of Mycobacterium tuberculosis PTP-A using p-nitrophenyl phosphate as substrate at 25 uM measured for 10 mins by spectrofluorimetry
Quick reference for inhibition among some compounds
Enter your answer as a number in %; do not include the unit.

Worked cases, answers included:
[
  {
    "smiles entry": "O=C(/C=C/c1ccc(C(F)(F)F)cc1)c1ccc2c(c1)OCO2",
    "unit annotation": "%",
    "inhibition": 7
  },
  {
    "smiles entry": "COc1cc(OC)c(OC)cc1/C=C/C(=O)c1ccc2ccccc2c1",
    "unit annotation": "%",
    "inhibition": 7
  },
  {
    "smiles entry": "COc1ccc(C(=O)/C=C/c2ccc3c(c2)OCO3)c(OC)c1",
    "unit annotation": "%",
    "inhibition": 42
  },
  {
    "smiles entry": "O=C(/C=C/c1ccc(Br)cc1)c1ccc2ccccc2c1",
    "unit annotation": "%",
    "inhibition": 8
  },
  {
    "smiles entry": "O=C(/C=C/c1ccc([N+](=O)[O-])cc1)c1ccc2c(c1)OCO2",
    "unit annotation": "%",
    "inhibition": 35
  }
]

**Q:** Sample Cc1ccc(/C=C/C(=O)c2ccc3ccccc3c2)cc1 — what was its inhibition?
**A:** 8

**Q:** Check O=C(/C=C/c1ccc(-c2ccccc2[N+](=O)[O-])o1)c1ccc2ccccc2c1 too.
**A:** 9

* * *

Target: Phosphotyrosine-protein phosphatase PTPB (Mycobacterium tuberculosis) (UniProt P96830)
Assay: Inhibition of Mycobacterium tuberculosis PTP-B using p-nitrophenyl phosphate as substrate at 25 uM measured for 10 mins by spectrofluorimetry
parameter measured: inhibition (%)
Enter your answer as a number in %; do not include the unit.

Worked cases, answers included:
[
  {
    "smiles entry": "O=C(/C=C/c1ccc2ccccc2c1)c1ccc(Cl)c(Cl)c1",
    "inhibition [%]": 18
  },
  {
    "smiles entry": "O=C(/C=C/c1ccc2c(c1)OCO2)c1cccc([N+](=O)[O-])c1",
    "inhibition [%]": 6
  },
  {
    "smiles entry": "O=C(/C=C/c1ccc(Cl)c(C(F)(F)F)c1)c1ccc2c(c1)OCO2",
    "inhibition [%]": 0
  }
]

Shift focus to the following entry.
**Q:** Sample COc1cc(/C=C/C(=O)c2ccc(Br)cc2)ccc1OCc1ccccc1 — what was its inhibition?
**A:** 0

* * *

Target: Low molecular weight protein-tyrosine phosphatase A (Mycobacterium tuberculosis) (UniProt P9WIA1)
Assay: Inhibition of Mycobacterium tuberculosis PTP-A using p-nitrophenyl phosphate as substrate at 25 uM measured for 10 mins by spectrofluorimetry
Quick reference for inhibition among some compounds

Worked cases, answers included:
[
  {
    "smiles entry": "N#Cc1ccc(/C=C/C(=O)c2ccc3c(c2)OCO3)cc1",
    "parameter measured": "inhibition",
    "reported measurement": "4%"
  },
  {
    "smiles entry": "O=C(/C=C/c1ccc2ccccc2c1)c1ccc(Br)cc1",
    "parameter measured": "inhibition",
    "reported measurement": "11%"
  },
  {
    "smiles entry": "O=C(/C=C/c1ccc(Cl)c(C(F)(F)F)c1)c1ccc2ccccc2c1",
    "parameter measured": "inhibition",
    "reported measurement": "13%"
  }
]

**Q:** Sample CCCCOc1ccc(/C=C/C(=O)c2ccc3c(c2)OCO3)cc1 — what was its inhibition?
**A:** 11%

**Q:** Check COc1ccc(/C=C/C(=O)c2ccc3c(c2)OCO3)cc1 too.
**A:** 17%

**Q:** Check O=C1COc2ccc(C(=O)/C=C/c3ccc4ccccc4c3)cc2N1 too.
**A:** 0%

**Q:** Check O=C(/C=C/c1cc2ccccc2nc1Cl)c1ccc2c(c1)OCO2 too.
**A:** 19%

**Q:** Check O=C(/C=C/c1ccc(Br)cc1)c1ccc2c(c1)OCO2 too.
**A:** 37%

**Q:** Check O=C(/C=C/c1ccccc1Cl)c1ccc2c(c1)OCO2 too.
**A:** 5%

**Q:** Check O=C(/C=C/c1cc(Cl)cc(Cl)c1)c1ccc2c(c1)OCO2 too.
**A:** 14%

**Q:** Check COc1cccc(OC)c1/C=C/C(=O)c1ccc2ccccc2c1 too.
**A:** 40%

* * *

Target: Phosphotyrosine-protein phosphatase PTPB (Mycobacterium tuberculosis)
Quick reference for IC50 among some compounds

Worked cases, answers included:
[
  {
    "smiles entry": "O=C(/C=C/c1ccc2c(c1)OCO2)c1ccc([N+](=O)[O-])cc1",
    "reported measurement": "51 µM"
  },
  {
    "smiles entry": "O=C(/C=C/c1ccc2c(c1)OCO2)c1cccc([N+](=O)[O-])c1",
    "reported measurement": "> 100 µM"
  },
  {
    "smiles entry": "COc1ccc(C(=O)/C=C/c2ccc(OCc3ccccc3)c(OC)c2)c(OC)c1",
    "reported measurement": "> 100 µM"
  },
  {
    "smiles entry": "O=C(/C=C/c1ccc2ccccc2c1)c1ccc[nH]1",
    "reported measurement": "81 µM"
  }
]

**Q:** Sample O=C(/C=C/c1ccc2ccccc2c1)c1ccc(Br)cc1 — what was its IC50?
**A:** 25 µM

**Q:** Check O=C(/C=C/c1ccc(Cl)cc1Cl)c1ccc2ccccc2c1 too.
**A:** 417 µM

**Q:** Check O=C(/C=C/c1ccccc1[N+](=O)[O-])c1ccc2ccccc2c1 too.
**A:** 54 µM

**Q:** Check O=C(/C=C/c1ccc2ccccc2c1)c1ccc(Cl)s1 too.
**A:** 57 µM

**Q:** Check O=C(/C=C/c1ccc([N+](=O)[O-])cc1)c1ccc2ccccc2c1 too.
**A:** 62 µM

**Q:** Check Cc1ccc(C(=O)/C=C/c2ccc3ccccc3c2)cc1 too.
**A:** 135 µM

**Q:** Check O=C(/C=C/c1ccccc1[N+](=O)[O-])c1ccc2c(c1)OCO2 too.
**A:** 81 µM

**Q:** Check O=C(/C=C/c1ccc(C(F)(F)F)cc1)c1ccc2ccccc2c1 too.
**A:** 339 µM

**Q:** Check O=C(O)c1ccc(/C=C/C(=O)c2ccc3ccccc3c2)cc1 too.
**A:** 12 µM

* * *

Quick reference for inhibition among some molecules
Target: Low molecular weight protein-tyrosine phosphatase A (Mycobacterium tuberculosis) (UniProt P9WIA1)
Sequence (whole entry): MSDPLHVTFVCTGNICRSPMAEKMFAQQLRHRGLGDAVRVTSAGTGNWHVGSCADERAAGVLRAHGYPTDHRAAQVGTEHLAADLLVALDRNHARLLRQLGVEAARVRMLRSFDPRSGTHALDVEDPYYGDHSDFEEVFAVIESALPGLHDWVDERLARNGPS
Assay: Inhibition of Mycobacterium tuberculosis PTP-A using p-nitrophenyl phosphate as substrate at 25 uM measured for 10 mins by spectrofluorimetry
Enter your answer as a number in %; do not include the unit.

Worked cases, answers included:
[
  {
    "smiles entry": "O=C(/C=C/c1ccc2ccccc2c1)c1ccc(-n2ccnc2)cc1",
    "inhibition (%)": 40
  },
  {
    "smiles entry": "O=C(/C=C/c1ccccc1)c1ccc2c(c1)OCO2",
    "inhibition (%)": 0
  },
  {
    "smiles entry": "COc1ccc(/C=C/C(=O)c2ccc3ccccc3c2)cc1",
    "inhibition (%)": 35
  },
  {
    "smiles entry": "O=C(/C=C/c1cccc(C(F)(F)F)c1)c1ccc2c(c1)OCO2",
    "inhibition (%)": 41
  },
  {
    "smiles entry": "COc1cc(/C=C/C(=O)c2ccc3c(c2)OCO3)ccc1O",
    "inhibition (%)": 0
  }
]

**Q:** Sample O=C(/C=C/c1cccc([N+](=O)[O-])c1)c1ccc2c(c1)OCO2 — what was its inhibition?
**A:** 23

**Q:** Check O=C(/C=C/c1ccc2ccccc2c1)c1cc(Cl)ccc1Cl too.
**A:** 0

**Q:** Check COc1cc(/C=C/C(=O)c2ccc3c(c2)OCO3)ccc1OCc1ccccc1 too.
**A:** 12

**Q:** Check COc1cc(OC)c(C(=O)/C=C/c2ccc3c(c2)OCO3)c(OC)c1 too.
**A:** 0

**Q:** Check O=C(/C=C/c1ccc(Cl)c(C(F)(F)F)c1)c1ccc2c(c1)OCO2 too.
**A:** 0

**Q:** Check O=C(/C=C/c1ccc(Cl)cc1)c1ccc2c(c1)OCO2 too.
**A:** 38
